Reference source: ChEMBL document CHEMBL1201862

# assay_target: Ataxin-2 (Homo sapiens) (UniProt Q99700)
# Sequence (Q99700 whole entry): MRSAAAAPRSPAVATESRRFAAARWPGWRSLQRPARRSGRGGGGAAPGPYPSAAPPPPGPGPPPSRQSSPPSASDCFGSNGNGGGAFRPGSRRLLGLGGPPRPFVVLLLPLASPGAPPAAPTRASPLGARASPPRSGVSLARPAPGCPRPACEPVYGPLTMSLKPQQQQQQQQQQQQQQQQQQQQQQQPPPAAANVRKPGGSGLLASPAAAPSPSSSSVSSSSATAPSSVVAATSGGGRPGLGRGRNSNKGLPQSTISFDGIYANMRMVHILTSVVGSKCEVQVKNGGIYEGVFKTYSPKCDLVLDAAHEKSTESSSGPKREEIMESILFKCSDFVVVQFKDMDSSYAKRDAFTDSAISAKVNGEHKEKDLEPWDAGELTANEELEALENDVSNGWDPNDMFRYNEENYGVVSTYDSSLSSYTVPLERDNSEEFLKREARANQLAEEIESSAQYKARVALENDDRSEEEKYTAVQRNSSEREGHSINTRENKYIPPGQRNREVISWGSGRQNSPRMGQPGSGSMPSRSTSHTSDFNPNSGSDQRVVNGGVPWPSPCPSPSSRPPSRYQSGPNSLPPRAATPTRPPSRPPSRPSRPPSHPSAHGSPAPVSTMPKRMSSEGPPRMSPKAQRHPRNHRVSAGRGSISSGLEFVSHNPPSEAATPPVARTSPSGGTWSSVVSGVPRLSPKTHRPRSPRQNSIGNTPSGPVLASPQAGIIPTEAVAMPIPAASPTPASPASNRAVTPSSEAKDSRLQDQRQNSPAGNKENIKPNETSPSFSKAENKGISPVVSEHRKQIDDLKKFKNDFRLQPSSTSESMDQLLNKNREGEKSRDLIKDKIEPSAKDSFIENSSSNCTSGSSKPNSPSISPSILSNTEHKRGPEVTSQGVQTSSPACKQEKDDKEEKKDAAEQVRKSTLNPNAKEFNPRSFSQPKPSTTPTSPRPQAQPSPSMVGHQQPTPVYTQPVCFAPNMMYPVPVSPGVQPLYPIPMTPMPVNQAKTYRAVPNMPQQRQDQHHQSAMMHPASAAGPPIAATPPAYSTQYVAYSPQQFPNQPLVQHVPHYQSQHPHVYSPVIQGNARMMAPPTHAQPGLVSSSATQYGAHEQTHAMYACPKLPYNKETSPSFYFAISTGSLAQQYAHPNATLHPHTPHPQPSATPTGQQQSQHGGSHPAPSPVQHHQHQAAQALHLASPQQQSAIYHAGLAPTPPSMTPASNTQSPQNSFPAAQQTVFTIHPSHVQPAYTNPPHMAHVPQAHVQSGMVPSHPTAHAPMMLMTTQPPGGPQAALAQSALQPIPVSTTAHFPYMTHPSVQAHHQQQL
# assay_info: qHTS for Inhibitors of ATXN expression.
# Assay type: functional
Hit rate of the full screen: of about 400,000 compounds, about 2,100 (0.53%) were called active. Not shown: some 14% with an inconclusive outcome. Shown is part of a subset that was picked to be rich in actives.
quantity_kind: Potency

- molecule: "N=C(NOC(=O)CCCOc1ccccc1)c1cccc(Br)c1"
  assay_target: "Ataxin-2 (Homo sapiens) (UniProt Q99700)"
  data_value: "inactive"
- molecule: "CCC1Cc2c(nc(N)c3c(N)nc(N4CCCCC4)c(C#N)c23)O1 (centres undefined)"
  assay_target: "Ataxin-2 (Homo sapiens) (UniProt Q99700)"
  data_value: "inactive"
- molecule: "Cc1c(CCOC(=O)CC23CC4CC(CC(C4)C2)C3)sc[n+]1CC(=O)c1ccccc1"
  assay_target: "Ataxin-2 (Homo sapiens) (UniProt Q99700)"
  data_value: "29.9 µM (active)"
- molecule: "Cc1cc(NS(=O)(=O)c2ccc(NC(=O)c3cc4cc(Br)ccc4oc3=O)cc2)no1"
  assay_target: "Ataxin-2 (Homo sapiens) (UniProt Q99700)"
  data_value: "inactive"
- molecule: "COc1ccc2c(c1)cc(C(=O)N/N=C/c1c(O)c(C(=O)O)cc3ccccc13)n2C"
  assay_target: "Ataxin-2 (Homo sapiens) (UniProt Q99700)"
  data_value: "inactive"
- molecule: "COc1ccc(CN(C)CC(O)COc2ccc(-c3ccccc3)cc2)cc1OC (centres undefined)"
  assay_target: "Ataxin-2 (Homo sapiens) (UniProt Q99700)"
  data_value: "11.2 µM (active)"
- molecule: "CC1=NNC(=O)/C1=C\\c1cn(-c2ccccc2)nc1-c1ccc(Cl)cc1"
  assay_target: "Ataxin-2 (Homo sapiens) (UniProt Q99700)"
  data_value: "10 µM (active)"
- molecule: "COc1cccc2c1C(=O)c1c(O)c3c(c(O)c1C2=O)C[C@@](O)(C(=O)CO)C[C@@H]3O[C@H]1C[C@H](N)[C@@H](O)[C@H](C)O1"
  assay_target: "Ataxin-2 (Homo sapiens) (UniProt Q99700)"
  data_value: "8.91 µM (active)"
- molecule: "COc1ccc(CN(C)Cc2c(O)ccc3cc(Br)ccc23)cc1OC"
  assay_target: "Ataxin-2 (Homo sapiens) (UniProt Q99700)"
  data_value: "inactive"

###

# assay_target: Ataxin-2 (Homo sapiens) (UniProt Q99700)
# assay_info: qHTS for Inhibitors of ATXN expression.
# Format: functional
Among all 400,000 compounds or so, about 2,100 (0.53%) were called active. Another 14% or so got no clear call; they are omitted. No rule for the calls is given here. The sample holds actives, similar compounds and a random draw of the others, so the mix is not that of the screen.
Outcomes: active, inactive

- compound: "CCCS(=O)(=O)c1nnnn1-c1cccc(OC)c1"
  class_assignment: "active"
- compound: "Cc1ccc(-n2nc3c(=O)n(C(C)C(=O)NCCc4cccs4)nc(C)c3c2C)cc1 (stereo not drawn)"
  class_assignment: "inactive"
- compound: "CCn1c(=N)c(C(=O)NCc2cccnc2)cc2c(=O)n3cc(C)ccc3nc21"
  class_assignment: "inactive"
- compound: "O=c1cc(-c2ccccc2)c2ccc3c(c2o1)CN(Cc1cccc(Cl)c1)CO3"
  class_assignment: "inactive"
- compound: "Cc1ccc(C)c(Nc2nc3nonc3nc2Nc2cccc(C)c2C)c1"
  class_assignment: "active"
- compound: "Cn1ncc2c(ON=C(N)c3ccc(C(C)(C)C)cc3)ncnc21"
  class_assignment: "active"
- compound: "C=Cc1ccc(Cn2c(C(=O)O)c(CNCCc3ccco3)c3ccc(C)cc32)cc1"
  class_assignment: "active"
- compound: "COC(=O)C1=CN(Cc2cccs2)C=C(C(=O)OC)C1c1ccc(OC)cc1OC"
  class_assignment: "inactive"
- compound: "CCOC(=O)C1CCN(Cc2ccc3ccccc3c2)CC1"
  class_assignment: "inactive"
- compound: "Cc1ccc(S(=O)(=O)N(CCCO)CC(O)CON=C2c3ccccc3-c3ccccc32)cc1 (stereo not drawn)"
  class_assignment: "active"
- compound: "Cc1ccc2cccc(NS(=O)(=O)c3ccccc3)c2n1"
  class_assignment: "inactive"
- compound: "CCCCn1c(NC(=O)c2ccccc2)c(C#N)c2nc3ccccc3nc21"
  class_assignment: "inactive"
- compound: "CN(C)c1nc(-c2ccccc2)c2cc(Cl)ccc2n1"
  class_assignment: "inactive"
- compound: "CCCS(=O)(=O)c1nc(S(=O)(=O)c2ccc(C)cc2)c(N2CCN(CCO)CC2)s1"
  class_assignment: "inactive"
- compound: "CCOc1ccc(CNC(=O)C2CCCN(c3nnc(C)c4c(C)n(-c5ccccc5)nc34)C2)cc1 (stereo not drawn)"
  class_assignment: "active"
- compound: "Cc1nnc(N2CCCC(C(=O)Nc3cc(F)ccc3F)C2)c2nn(-c3ccccc3)c(C)c12 (stereo not drawn)"
  class_assignment: "active"
- compound: "CCN(CC)S(=O)(=O)c1ccc(C(=O)N(c2ccc(C)cc2)C2C=CS(=O)(=O)C2)cc1 (stereo not drawn)"
  class_assignment: "inactive"
- compound: "Cc1ccccc1Cn1c(CN2CCC(C(=O)NCc3cccnc3)CC2)cc2ccccc21"
  class_assignment: "active"
- compound: "CCOC(=O)N1CCN(S(=O)(=O)N2CCCC(C(=O)NCCc3ccc(Cl)cc3)C2)CC1 (stereo not drawn)"
  class_assignment: "inactive"
- compound: "O=C(O)c1ccc2nc(-c3cc4cc(Cl)ccc4oc3=O)[nH]c2c1"
  class_assignment: "inactive"
- compound: "O=C1CCCc2nc3c(cc21)C(O)Oc1c-3ccc2ccccc12 (stereo not drawn)"
  class_assignment: "inactive"
- compound: "COc1ccccc1C1c2[nH]c3ccccc3c2CCN1Cc1cnc(C)s1 (stereo not drawn)"
  class_assignment: "inactive"
- compound: "COc1ccc(Oc2ccc(/C=C/C(=O)c3cccc(OC)c3)cc2[N+](=O)[O-])cc1"
  class_assignment: "active"
- compound: "CCCc1cc(=O)oc2c(CN3CCCC3)c(O)c(Cl)cc12"
  class_assignment: "inactive"
- compound: "CCCn1c(=N)c(C(=O)NCc2cccnc2)cc2c(=O)n3cccc(C)c3nc21"
  class_assignment: "inactive"
- compound: "O=C(/C=C/c1ccc(Cl)c([N+](=O)[O-])c1)c1ccc(O)cc1"
  class_assignment: "active"
- compound: "CC(=O)Nc1cccc(C(=O)NC2CCCc3c2cnn3-c2ccc(C(C)(C)C)cc2)c1 (stereo not drawn)"
  class_assignment: "active"
- compound: "COc1ccc(OC)c(CN2CCN(Cc3cc(=O)oc4cc(O)ccc34)CC2)c1"
  class_assignment: "inactive"
- compound: "Cc1ccccc1C(=O)NNc1ncnc2c1cnn2C"
  class_assignment: "inactive"
- compound: "Nc1ccc(Cn2ccc3c4c(N)nc(N)nc4ccc32)cc1"
  class_assignment: "active"
- compound: "CCCn1c(=N)c(C(=O)NCc2cccnc2)cc2c(=O)n3cc(C)ccc3nc21"
  class_assignment: "inactive"
- compound: "Cc1ccc2[nH]c3ccccc3c(=O)c2c1"
  class_assignment: "inactive"
- compound: "O=C(NN=C1CCCC1)NC1CCCCC1"
  class_assignment: "inactive"
